Target: D(2) dopamine receptor (Homo sapiens)
Assay: HTS Assay for Allosteric Antagonists of the Human D2 Dopamine Receptor: Primary Screen for Antagonists; also: 0% is about no effect
Conditions: HEK293 TREx D2 cells, calcium flux, dopamine EC80; at 10 µM; stronger effect = higher value
Description: NIH Chemical Genomics Center [NCGC] NIH Molecular Libraries Probe Centers Network [MLPCN] […] Freshly passaged cells are plated in 1536 well black, clear bottom plates at a density of 4000 cells/well in 3 ul of complete media containing 1x tetracycline inducer. […] Agonist read: A 10 cycle (1 second/cycle) baseline measurement is taken and then the FDSS online 1536 pintool delivers 23 nl of compound library (as well as dopamine controls) to the plate. […]
In all, about 340,000 compounds went through this assay and about 6,900 (2%) were called active. Many of the other results were omitted from the sample, so actives are more common in it than they were.
Exercise: state measured inhibition for each of the compounds provided.
Write down the numeric answer in % and omit the unit.

Data point: Cc1[nH]c2ccccc2c1C(=O)CN1CC(C)CC(C)C1 (configuration not stated) ; inhibition = 14.4

Data point: Cc1ccc(C)c(NS(=O)(=O)c2ccc(OCC(=O)NCc3cccnc3)cc2)c1 ; inhibition = 42.3

Data point: CC(OC(=O)CNC(=O)c1ccc(Cl)c([N+](=O)[O-])c1)C(=O)NCc1ccco1 (configuration not stated) ; inhibition = 26.5

Data point: Cc1cccc(NC(=O)CCN2CC(C)CC(C)C2)c1 (configuration not stated) ; inhibition = 4.5

Data point: Nc1nc(SC23CC4CC(CC(C4)C2)C3)ns1 ; inhibition = -8.79

Data point: CN(c1cccc(NC(=O)Nc2ccc(Cl)cc2)c1)S(C)(=O)=O ; inhibition = 4.52

Data point: Cc1ccc(CNC(=O)COc2ccc(S(=O)(=O)NC(C)C)cc2)cc1 ; inhibition = 6.5

Data point: Cc1cc(S(=O)(=O)NC2CCCCC2)ccc1OCC(=O)NCc1cccnc1 ; inhibition = -3.46

Data point: COc1ccc(-c2c(C#Cc3ccccc3)c3ccccc3n2C)cc1 ; inhibition = 9.11

Data point: CN(CC(=O)Nc1ccc(OC(F)(F)F)cc1)C(=O)C1CCC1 ; inhibition = -3.8

Data point: Cc1ccc(CSc2ccc(S(=O)(=O)N3CCCCC3)cn2)cc1 ; inhibition = -10.3

Data point: COc1ccc(-c2nc3ccccc3c(=O)n2CCc2ccc(O)cc2)cc1 ; inhibition = -13.4

Data point: N#Cc1cccc(NC(=O)COC(=O)c2ccccc2C(=O)c2ccc(Cl)c([N+](=O)[O-])c2)c1 ; inhibition = 7.92

Data point: CC1CC(C)CN(CCOc2cccc3ccccc23)C1 (configuration not stated) ; inhibition = 55.1

Data point: Cc1[nH]c2ccccc2c1/C=N/NC(=O)CNC(=O)c1ccc2c(c1)OCO2 ; inhibition = -12.8

Data point: COc1ccc(CCNCc2c(-c3ccccc3)n(C)c3ccccc23)cc1 ; inhibition = 45.6

Data point: O=C(CCC1CCCN(C(=O)Cc2ccc(F)cc2)C1)N1CCN(c2ccccn2)CC1 (configuration not stated) ; inhibition = -9.86

Data point: CNS(=O)(=O)c1cccc(C(=O)OCC(=O)N2c3ccccc3NC(=O)C2(C)C)c1 ; inhibition = -3.21

Data point: Cc1ccc(C)c(NC(=O)COC(=O)CSc2ccccc2)c1 ; inhibition = -6.28

Data point: Cc1ccc(OCC(=O)Nc2ccccc2C(=O)NC2CC2)cc1 ; inhibition = -3.15

Data point: Cc1nc(N2CCN(c3ccccn3)CC2)c2c(C)c(C(=O)Nc3ccc(F)cc3)sc2n1 ; inhibition = 8.07

Data point: Cc1c(CN2CC[C@@H](N3CCN(c4ccccn4)CC3)[C@H](O)C2)[nH]c2ccc(F)cc12 ; inhibition = 51.4
